# credit: PubChem BioAssay (NCI)

The following compounds are shown together with reported growth values.
Test system: HL-60(TB) leukemia
Test: NCI-60 one-dose screen, 48 h (100 = growth as untreated, 0 = no growth, -100 = all killed)
Details: 10 µM unless noted
Procedure: Growth inhibition of the HL-60(TB) human tumor cell line is measured as a screen for anti-cancer activity. Cells are grown in 96 well plates and exposed to the test compound for 48 hours. Compounds are tested at a single concentration, which is 10^-5 M for most compounds. The reported endpoint is percent growth (GI% or GIPRCNT), where numbers from 0 - 100% represent growth inhibition, and numbers from -100% - 0 represent cell death. For example, a value of 40 represents 60% growth inhibition. […]
Compounds without any hit were thinned out: in the full panel of roughly 83,000, 20% have a hit.
Give the value, in units of %, as a plain number.

q: For CC(C)(C)[Si](C)(C)OC1[C@@H](O[Si](C)(C)C(C)(C)C)[C@@H](CNC(=O)NC(=O)CCl)O[C@H]1n1cnc2c(NC(=O)Nc3ccccc3)ncnc21 (stereo partly drawn) , what is its reported growth?
a: -73.1

q: growth for "Cc1cc(N2CCOCC2)nc(N[C@@H]2CCC[C@H](Nc3ccnc4cc(Cl)ccc34)C2)n1" ?
a: -69.5

q: Give the measured growth of "Cc1nc2c(O)cccc2cc1CO" .
a: 81.7

q: Item under review: "CCOC(=O)c1c2c(c(C)n1Cc1ccc(OC)cc1)-c1nc(N)ncc1CC2" . Reported growth?
a: 68.8

q: Form field: reported growth of "O=C1/C(=C/c2ccccc2)CCc2nc3ccccc3c(/C=C/c3ccc(Cl)cc3)c21"
a: 83.2

q: Consider the compound "COc1cc2c(cc1O)C(=O)CCCC2" and give its measured growth.
a: 90.3

q: So what's the measured growth for this one? "COc1ccc(C(=O)c2nc3ccccc3n2CC(=O)c2ccc(F)cc2)cc1"
a: 79.5

q: If you can, please state the reported growth value of "COc1ccc(-c2cc(-c3cccnc3)nc3sc4c(N)c(C(C)=O)c(-c5ccccc5)nc4c23)cc1OC" .
a: 78

---

System: HL-60(TB) leukemia
Assay: NCI-60 one-dose screen, 48 h (100 = growth as untreated, 0 = no growth, -100 = all killed)
Settings: 10 µM unless noted
This is part of a sample that, as a whole, favours compounds with a hit. Of some 83,000 tested, about 20% had one in any assay.
// assign Y if growth falls strictly below 50%, else N (ties count as N)

Recorded results for 5 molecules are shown here.
[
  {
    "MOLECULE": "O=c1cc(/C(=C2/C=CC=N2)c2ccc[nH]2)c2cc(Cl)ccc2o1",
    "ASSIGNED_CLASS": "N"
  },
  {
    "MOLECULE": "O=C(/C=C/c1cccc(Cl)c1)c1cccc(OCCCCOc2cccc(C(=O)/C=C/c3cccc(Cl)c3)c2)c1",
    "ASSIGNED_CLASS": "N"
  },
  {
    "MOLECULE": "CSC1=CC(=O)c2ccccc2C1=O",
    "ASSIGNED_CLASS": "Y"
  },
  {
    "MOLECULE": "Cc1cccc(N2CCN(C(=S)c3ccc4c(c3)OCO4)CC2)c1",
    "ASSIGNED_CLASS": "Y"
  },
  {
    "MOLECULE": "O=Cc1c(OCc2cnnn2CC(=O)Nc2ccc(Cl)cc2)ccc2ccccc12",
    "ASSIGNED_CLASS": "N"
  }
]

Next item in the queue.
q: Does this molecule meet the criterion growth < 50%? "CCCCCCCCCCn1cc[n+](C)c1"
a: N

---

Tested on: HL-60(TB) leukemia
Test: NCI-60 one-dose screen, 48 h
Conditions: 10 µM unless noted
Compounds without any hit were thinned out: in the full panel of roughly 83,000, 20% have a hit. Activity calls are given as the source filed them. Rule for the calls: active = growth percent below 10; inactive = the rest.
Please state which outcome applies, choosing from y (active), n (inactive)

// below: answered compounds
[
  {
    "COMPOUND": "N=C(N)c1ccc(-c2ccc(-c3ccc(Cl)cc3)s2)s1",
    "ASSIGNED_CLASS": "y"
  },
  {
    "COMPOUND": "C#CC#CC#CC#CC#CC#CC#CC#CC[C@H]1OC[C@@H](COC(=O)O[C@@H](C(=O)O[C@H]2C[C@@]3(O)[C@@H](OC(=O)c4ccccc4)[C@@H]4[C@]5(OC(C)=O)CO[C@@H]5C[C@H](O)[C@@]4(C)C(=O)[C@H](OC(C)=O)C(=C2C)C3(C)C)[C@@H](NC(=O)c2ccccc2)c2ccccc2)O1",
    "ASSIGNED_CLASS": "y"
  },
  {
    "COMPOUND": "C=C(c1ccc(N(C)C)cc1)c1ccc(N(C)C)cc1",
    "ASSIGNED_CLASS": "y"
  },
  {
    "COMPOUND": "CCNCCNc1cc(-c2ccc(C(=O)OC)cc2)c(C#N)c2nc3ccccc3n12",
    "ASSIGNED_CLASS": "y"
  },
  {
    "COMPOUND": "C=C(C)[C@@H]1CCC[C@]2(C(=O)OC)CC[C@]3(C)[C@@H](CC[C@@H]4[C@@]5(C)CCCNC(C)(C)[C@@H]5CC[C@]43C)[C@@H]12",
    "ASSIGNED_CLASS": "n"
  },
  {
    "COMPOUND": "O=[N+]([O-])C1CC2C=CC1C2 (centres undefined)",
    "ASSIGNED_CLASS": "n"
  },
  {
    "COMPOUND": "COc1cccc(-c2nc3sccn3c2-c2ccnc(NCCNS(=O)(=O)c3cccc(Cl)c3)c2)c1",
    "ASSIGNED_CLASS": "n"
  },
  {
    "COMPOUND": "CC/C(=C(/c1ccc(OCCN(C)C)cc1)c1ccc(OC(=O)CCCCC(=O)c2c(C)[nH]c(/C=C3\\N=C(c4ccc[nH]4)C=C3OC)c2C)cc1)c1ccccc1",
    "ASSIGNED_CLASS": "n"
  }
]

q: So what was the verdict on "O=S(=O)(Nc1ccc(OC(F)F)cc1)c1ccc(-c2cnc(C3CC3)o2)cc1" in this test?
a: n

---

Test system: HCT-15 colon
Assay: NCI-60 one-dose screen, 48 h
Details: 10 µM
About 83,000 compounds went through this panel and 20% of them were active in at least one assay; those are over-represented in the sample as a whole. Calls of active or inactive are those of the source. Rule for the calls: active = growth percent below 10; inactive = the rest.
Please reply with one of these outcomes: 1.0 for active, 0.0 for inactive

q: // return assay outcome for CCCCN(CCCC)CC(O)c1ccccc1 (stereo unspecified)
a: 0.0

---

Tested on: HCT-15 colon
Assay: NCI-60 one-dose screen, 48 h (100 = growth as untreated, 0 = no growth, -100 = all killed)
Conditions: 10 µM
Protocol: Growth inhibition of the HCT-15 human tumor cell line is measured as a screen for anti-cancer activity. Cells are grown in 96 well plates and exposed to the test compound for 48 hours. Compounds are tested at a single concentration, which is 10^-5 M for most compounds. The reported endpoint is percent growth (GI% or GIPRCNT), where numbers from 0 - 100% represent growth inhibition, and numbers from -100% - 0 represent cell death. For example, a value of 40 represents 60% growth inhibition. […]
About 83,000 compounds went through this panel and 20% of them were active in at least one assay; those are over-represented in the sample as a whole.
Classify: T when growth is strictly less than 90%; F when growth is not.

[
  {
    "COMPOUND": "CCN(CC)c1ccc(C=C2C(=O)NC(=S)NC2=O)cc1",
    "ASSIGNED_CLASS": "T"
  },
  {
    "COMPOUND": "CC(=O)O[C@H]1CCC2C3CCC4=C/C(=N/O)CCC4(C)C3CCC21C (some centres undefined)",
    "ASSIGNED_CLASS": "T"
  },
  {
    "COMPOUND": "COC(=O)C(=[N+]=[N-])C(=O)OC",
    "ASSIGNED_CLASS": "F"
  },
  {
    "COMPOUND": "CCC(C)(C)O",
    "ASSIGNED_CLASS": "F"
  }
]

q: Given the entry CN1CCN(C(=O)COc2ccc(/C=C3\CC4C5CC=C6CC(Cl)CCC6(C)C5CCC4(C)C3=O)cc2)CC1 (centres undefined) , would its reported growth be below 90%?
a: T

q: Report whether reported growth is lower than 90% (strictly) for "CC(/C=N/N=C(N)N)=N\N=C(N)N"
a: F

q: hey, is growth for "Cc1cc(NC(=O)/C=C/c2ccc([N+](=O)[O-])cc2)ccc1S(=O)(=O)F" lower than 90% or not?
a: F

q: Below 90% on growth? Entry "NC(=O)NC(=O)CI"
a: T

q: Quick check: does "O=C1c2ccccc2C(=O)N1[N+](=O)[O-]" have growth under 90%?
a: F
